- study.system: T1, human CD28 (human, UniProt P10747 19-152, limits assumed)
- T1 construct: also called Cluster of Differentiation 28; Tp44
- test.summary: affinity maturation of CD28-binding antibodies (Example 10: Discovery of Additional Antibodies that Bind to CD28)
quantity.name: binding result

[[record]]
binder = "Ab No. 28e (antibody, V domains shown, derived from Ab No. 28 by modifying VH CDRs, VL unchanged; IgG format) VH: EVQLLESGGGLVQPGGSLRLSCAASGFTFGRYAMSWVRQAPGKGLEWVSAISGDAGSTFYADSVKGRFTISRDNSKNTLYLQMNSLRAEDTAVYYCVRGYRLVGILTGSHFDYWGQGTLVTVSS VL: DIQMTQSPSTLSASVGDRVTITCRASQSIGSWLAWYQQKPGKAPKLLIYKASSLESGVPSRFSGSGSGTEFTLTISSLQPDDFATYYCQQYNILPPTFGGGTKVEIK"
value = "binds"

[[record]]
binder = "Ab No. 28d (antibody, V domains shown, derived from Ab No. 28 by modifying VH CDRs, VL unchanged; IgG format) VH: EVQLLESGGGLVQPGGSLRLSCAASGFTFDAYAMSWVRQAPGKGLEWVSAISGSGVRTYYADSVKGRFTISRDNSKNTLYLQMNSLRAEDTAVYYCVRGYRLVGILTGSHFDYWGQGTLVTVSS VL: DIQMTQSPSTLSASVGDRVTITCRASQSIGSWLAWYQQKPGKAPKLLIYKASSLESGVPSRFSGSGSGTEFTLTISSLQPDDFATYYCQQYNILPPTFGGGTKVEIK"
value = "binds"

[[record]]
binder = "Ab No. 28f (antibody, V domains shown, derived from Ab No. 28 by modifying VH CDRs, VL unchanged; IgG format) VH: EVQLLESGGGLVQPGGSLRLSCAASGFTFSTYGMNWVRQAPGKGLEWVSAISGSGLNTYYADSVKGRFTISRDNSKNTLYLQMNSLRAEDTAVYYCVRGYRLVGILTGSHFDYWGQGTLVTVSS VL: DIQMTQSPSTLSASVGDRVTITCRASQSIGSWLAWYQQKPGKAPKLLIYKASSLESGVPSRFSGSGSGTEFTLTISSLQPDDFATYYCQQYNILPPTFGGGTKVEIK"
value = "binds"

